Provenance of the data: the RNAGym collection of RNA variant scans (doi:10.1021/acssynbio.7b00057)

B1: Pistol ribozyme (parent)
chain: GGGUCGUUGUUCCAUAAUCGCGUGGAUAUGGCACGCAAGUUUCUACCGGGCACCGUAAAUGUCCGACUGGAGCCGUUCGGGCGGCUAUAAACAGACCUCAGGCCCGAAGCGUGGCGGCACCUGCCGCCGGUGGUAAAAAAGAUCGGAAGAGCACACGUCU

Variants of: B1
Assay protocol: aptazyme ON/OFF ratio, guanine; higher = stronger switching; co-transcriptional cleavage with and without guanine

| Mutation notation | aptazyme ON/OFF ratio |
| --- | --- |
| U7C U10G U11A C12G C13U | 1.22 |
| U7A U8G G9U U10A U11C C12U C13G | 1.49 |
| U8G G9U U10G U11G C13G | 1.03 |
| U7C U8G G9A U10G C12U C13G | 1.19 |
| U8A G9C U10G U11G C13A | 1.23 |
| U8C U10C U11A C12U C13A | 1.26 |
| U7G U8G G9A U10G U11G C12U C13G | 1.27 |
| G9C U10C U11C C12A C13A | 1.03 |
| U8G U11G C13U | 1.03 |
